Reported values of apparent KD of MS2 coat protein for individual entries
Test system: MS2 coat protein
ASSAY DETAILS: apparent KD of MS2 coat protein; designed switch direction (-1 OFF switch, 1 ON switch): 1; higher = weaker reporter binding
REPORTED CONDITIONS: input ligand: microRNA oligo, concentration not stated
Field: numeric (nM). Do not append units.

Some entries whose results are on file:
UGGCUCAGACUAGGAUAUAUGCGAUCACAUGAGGAUCACCCAUGUCUCGAGCUUCGGCUCGAGGCAUAGAAGGAGUCUGAGCCU [SSNG2/4-D3] (Eterna round: R96, puzzle: Same State NG 2)
35.5
GGAGCCGGCACCGAGGAUAUUCAUAUUAAAACAUGAGGAUCACCCAUGUAGAGCGAAAGCUCUUGGGAGAAGGCGGAUCGGCUCG [Xeonanis - 28] (Eterna round: R96, puzzle: Same State 2)
488
GUUACAUGAGGAUCACCCAUGUAUGUGUGGGAGUAAGUGUCUUAGGAUAUCUAGUAUUUAACUUAAGAGAAGGAAGAUUGUUGU [JMF's solution 63] (Eterna round: R96, puzzle: Same State NG 3)
95.8
CGCCAGAGAGCAGGAUAUGGGCCACGGCCUAAGGGCUGUGAACUCACAUGAGGAUCACCCAUGUCCCAGAAGGGCUCCUGGCGG [Veatzain] (Eterna round: R96, puzzle: Same State NG 2)
1240

Find the recorded apparent KD of MS2 coat protein belonging to GAGGGACAGACCAACAUGAGGAUCACCCAUGUCCUCGCAGGUCAGGAUAUUAUGAGGAUCACCCAUGAGAAGGGACGGUGAACC (Eterna round: R96, puzzle: Same State NG 3) and report it.
340

Repeat for the following sequence: CUUCUUCCUUUUACAUGAGGAUCACCCAUGUUUUCAUAUUGAGAGGAUAUCGUAUUUGGAAACAUCGAGAAGGCUCAUUUGUAU [JR_SSNG3_Sub074] (Eterna round: R96, puzzle: Same State NG 3)
98.6

Repeat for the following sequence: UACAAUCUAUCUGAGGAUAUCAUGAAAAAAACAUGAGGAUCACCCAUGUGCAGGAAAACUGCAUAUGAGAAGGCAGAUAGAUUGA [salish99_SS2_r3_005] (Eterna round: R96, puzzle: Same State 2)
517

Repeat for the following sequence: AGGCCAUCAGGAGGAUAUGGCACCUUAUUGGUGCCAGAAGGUCUAACAUGAGGAUCACCCAUGUGGGUGUGGUCGAAAGACCAC [Fiskers NG1(ss) - 5] (Eterna round: R96, puzzle: Same State NG 1)
71.2

Repeat for the following sequence: GUCCGGCUGCCACAGGAUAUACGUGGAUCGACAUGAGGAUCACCCAUGUAUAUCCUAAUAAUUGCGUAGAAGGGUGGUCAGCCGG [Dionbe] (Eterna round: R96, puzzle: Same State 2)
507

* * *

Test system: MS2 coat protein
ASSAY DETAILS: apparent KD of MS2 coat protein; higher = weaker reporter binding
REPORTED CONDITIONS: Eterna round: R107; input ligand: theophylline 2 mM
Decision: apparent KD of MS2 coat protein >= 50 nM yields yes, all other cases yield no.

AGUAUCAGUGGAAGGAGCGUCGCGAAUGCCACAUGAGGAUCACCCAUGUCGCCUUGAGCGCGACAGGUAGGUCGCCACGGUAGGC [SS-ArgB3]
yes

Could you now look at the following sequence, please?
I'd appreciate it if you could say whether `GGACUAACCAGAAGGAGCGGCACGCAGAAACUGCAAUUUCCUCCGCACGAGGAUCACCCGUGUCAGGUAGGUCGCUGGUUAGUCG` has apparent KD of MS2 coat protein at least equal to 50 nM.
no

* * *

Test system: MS2 coat protein
ASSAY DETAILS: apparent KD of MS2 coat protein; designed switch direction (-1 OFF switch, 1 ON switch): -1; higher = weaker reporter binding
REPORTED CONDITIONS: input ligand: microRNA oligo, concentration not stated
RECORDED ENDPOINT: apparent KD of MS2 coat protein (nM)
Field: numeric (nM). Do not append units.

UUGUUGUAUGUAGGAUAUGCAUAUUGUUAUUAUGCAGAAGGACAUGAGGAUCACCCAUGUAUGUUAUUAUUAUGUGUUAUGUGU [Title] (Eterna round: R96, puzzle: Exclusion NG 1)
30.3
ACAUGAGGAUCACCCAUGUGACAAUAAUGGCUGAUACAGAGACAGGAUAUAGGUGAAUAUCUAACCUAGAAGGGUCAUGACUGG [Deportation 71 - Jieux - Exclusion NG 3] (Eterna round: R96, puzzle: Exclusion NG 3)
33
AGAAAGGUAGGAUAUACGAAAAAAAAGGGUAGAAAAAAAACACAUGAGGAUCACCCAUGUAGAAGGACCAAAGA [Mat - Exclusion 2 - Tesla mod - D31] (Eterna round: R96, puzzle: Exclusion 2)
27.6

Find the recorded apparent KD of MS2 coat protein belonging to UUUUUAGUGCUUUUUAAGUACAUGAGGAUCACCCAUGUACUUGUCUGGUGGUCCGGACAAGCUUUUUGCUCGUCUAG [Sensor v3 - turn-off variant 1 - 3] (Eterna round: R96, puzzle: Sensor v3, turn-off variant 1) and report it.
27.4

* * *

Test system: MS2 coat protein
ASSAY DETAILS: apparent KD of MS2 coat protein; higher = weaker reporter binding
REPORTED CONDITIONS: Eterna round: R107; input ligand: tryptophan 2.4 mM
RECORDED ENDPOINT: apparent KD of MS2 coat protein
# number then unit; no other words

UUCGUUUGCGGAAGGAGCGACGGACAUCGGUGAACGACGCACAUGAGGAUCACCCAUGUACGUCAGGUAGGUCGCCGCUAAGAGU [Tibira]
19.8 nM
GGGUACAUCGCGGCCGCCACUCAUGUAAAUACCUGAGGAUCACCCUGGUCGAUGGAGACAUCGAAGAGGACCGGGUGAUGUACCG
44.6 nM

Find the recorded apparent KD of MS2 coat protein belonging to GGACCAUGGAGCGAUACCAGCUUGAGUGUGCUGGCCAGGCACAUGAGGAUCACCCAUGUAAGCCCUUGGCAGCGCUCCAUGGUCC [#1 Exclusion - Theophylline B Attempt #26 (HarryS)] and report it.
10.6 nM

* * *

Test system: MS2 coat protein
ASSAY DETAILS: apparent KD of MS2 coat protein; designed switch direction (-1 OFF switch, 1 ON switch): 1; higher = weaker reporter binding
REPORTED CONDITIONS: Eterna round: R95; input ligand: FMN 200 uM
Consider the following partition of reported apparent KD of MS2 coat protein into named classes: bin 1: < 50 nM; bin 2: ≥ 50 nM and < 90 nM; bin 3: ≥ 90 nM

Use these answered entries as a reference point.
GUUAAACAUGAGGAUCACCCAUGUCAAUGUAGUCGAGGAUAUGGGUAGCCAUGAGGCGUACUAGAAGGCGAGGAGU [Mat - Same State 1 - Mod of JL - D19] (puzzle: Same State 1)
bin 3
GGUCCGGCCUGAGCUGGACCGGAGCAUGUACAUGAGGAUCACCCAUGUCAUGUACAGGCUUCUUGCUCGUCUUGUUG [JL-shm-2.16 JL Mod] (puzzle: Sensor for hsa-mir-208a)
bin 3
GGUCCAGCCUGAGCUGGACCGAAGCGUGUACAUGAGGAUCACCCAUGUCAUGUACAGGCUUUUUGCUCGUCUUAUUG [JL-shm-2.11 JL Mod] (puzzle: Sensor for hsa-mir-208a)
bin 1

Which category does the recorded apparent KD of MS2 coat protein put ACGCAGCUAGGUGAGGAUAUCGGUGGUAAAACAUGAGGAUCACCCAUGUCCGAAGCUCGGACUUCCGAGAAGGCGCCCGGCUGCA [Velaberi] (puzzle: Same State 2) in?
bin 1

Repeat for the following sequence: GGAGCCGGCACUGAGGAUAUUCAUAUUAAAACAUGAGGAUCACCCAUGUGGGCCAGAAGGCCUUGGGAGAAGGCAGGUCGGCCCG [Bibimoar - 4] (puzzle: Same State 2)
bin 1

Repeat for the following sequence: GCAGUACAUGAGGAUCACCCAUGUCUCUAAAGUCGAGGAUAUGGGCAGGUUAUAUCCGAACCAGAAGGCGAACUGC [SS1 Teenbexe 11] (puzzle: Same State 1)
bin 2

Repeat for the following sequence: CGUCCGGCCUGAGCUGGACGGAGGCAUGUACAUGAGGAUCACCCAUGUUCAUGUGCAGGCUUUUUGCUCGUCUUGUG [JL-shm-2.07 JL mod] (puzzle: Sensor for hsa-mir-208a)
bin 2

Repeat for the following sequence: UUCUCACAUGAGGAUCACCCAUGUGAGCCUCUGUGAGGAUAUCCGACAUAAUUAAUUGAAGGAGAAGGUACACGAG [Leer] (puzzle: Same State 1)
bin 3

Repeat for the following sequence: GGAGCCGGCACUGAGGAUAUUCAUAUUAAAACAUGAGGAUCACCCAUGUAGGCCAGAAGGCCAUGGGAGAAGGCAGGUCGGCCCG [Bibimoar - 7] (puzzle: Same State 2)
bin 1

Repeat for the following sequence: GGUGCACGGUGACGUGCACGGUAGUGCGUACAUGAGGAUCACCCAUGUCAUGUAGGAGUUACUUGUUCGUCUUGAAC [SENSOR #2] (puzzle: Sensor for hsa-mir-208a)
bin 1

Each recorded value in this set is attributed to the supplement of paper PMC9170038.
